# Target Under Test: UDP-N-acetylglucosamine 1-carboxyvinyltransferase (Escherichia coli K-12, UniProt P0A749)
# Sequence (P0A749 whole entry): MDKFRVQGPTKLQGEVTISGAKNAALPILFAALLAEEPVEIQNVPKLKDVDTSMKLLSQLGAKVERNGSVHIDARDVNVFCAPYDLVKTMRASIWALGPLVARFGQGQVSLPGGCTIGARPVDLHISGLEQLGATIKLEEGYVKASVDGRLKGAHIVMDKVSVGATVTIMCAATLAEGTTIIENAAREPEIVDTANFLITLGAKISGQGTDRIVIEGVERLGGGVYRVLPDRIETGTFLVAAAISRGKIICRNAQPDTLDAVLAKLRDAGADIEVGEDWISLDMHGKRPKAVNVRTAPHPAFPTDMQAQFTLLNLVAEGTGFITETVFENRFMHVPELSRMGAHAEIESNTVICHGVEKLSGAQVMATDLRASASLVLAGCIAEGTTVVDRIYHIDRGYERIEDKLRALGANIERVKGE
# Protocol Summary: Inhibition of recombinant Escherichia coli MurA expressed in Escherichia coli NiCo21 using UNAG and PEP as substrate preincubated for 30 mins in presence of UNAG followed by PEP substrate addition and measured after 15 mins by malachite green based colorimetric assay
Below is a list of entries, each paired with its recorded pIC50 value.
In textbook form, pIC50 equals minus log to base ten of the concentration in mol/L.

So for O=C(CCl)N1CCCC(OP(=O)(Oc2ccccc2)Oc2ccccc2)C1 (stereo not given) , the logged pIC50 turned out to be 3.27

* * *

# Target Under Test: UDP-N-acetylglucosamine 1-carboxyvinyltransferase (Escherichia coli K-12)
# Protocol Summary: Inhibition of recombinant Escherichia coli MurA expressed in Escherichia coli NiCo21 assessed as residual activity using UNAG and PEP as substrate at 500 uM preincubated for 30 mins in presence of UNAG followed by PEP substrate addition and measured after 15 mins by malachite green based colorimetric assay
# Condition Label: time 45.0 min
Measure Name: Activity (%)
The reply should contain only the number, in %.

Sample records with Activity:
* NC1CCN(C(=O)CCl)CC1 | 82
* O=C(CCl)NC1CCCCC1 | 74
* N#Cc1ccc(NC(=O)CCl)cc1 | 89

So for "O=C(CCl)N1CCCc2ccccc21" , the logged Activity turned out to be 73

So for O=C(CCl)N1CCC(COP(=O)(O)O)C1 (stereo not drawn) , the logged Activity turned out to be 47

Data credit: ChEMBL document CHEMBL5352428
